organism: Mus musculus; experiment: Loss of righting reflex (LORR) was evaluated in CF1 mice; format: functional
quantity_measured: ED50

molecule: Cc1nnc2n1-c1ccc(Cl)cc1C(c1ccccc1)=NC2O (stereo not given) [4-HYDROXY-ALPRAZOLAM]
measured: > 50 mg/kg
--
molecule: Cc1nnc2n1-c1ccc(Cl)cc1C(c1ccccc1)=[N+]([O-])C2
measured: > 200 mg/kg
--
molecule: Cc1nnc2n1-c1ccc(Cl)cc1C(c1ccccc1)N=C2N (stereo not given)
measured: > 200 mg/kg
--
molecule: Cc1nnc2n1-c1ccc(Cl)cc1C(c1ccccc1)=NC2
measured: > 100 mg/kg
--
molecule: CC(=O)OC1N=C(c2ccccc2)c2cc(Cl)ccc2-n2c(C)nnc21 (stereo not given)
measured: > 200 mg/kg
--
molecule: CCOC(=O)C1(C)N=C(c2ccccc2)c2cc(Cl)ccc2-n2c(C)nnc21 (stereo not given)
measured: > 200 mg/kg
--
molecule: Cc1nnc2n1-c1ccc(Cl)cc1C1(c3ccccc3)ON1C2 (stereo not given)
measured: > 25 mg/kg
--
molecule: Cc1nnc2n1-c1ccc(Cl)cc1C(c1ccccc1)NC2=O (stereo not given)
measured: > 100 mg/kg
--
molecule: CCOC(=O)C1(N)N=C(c2ccccc2)c2cc(Cl)ccc2-n2c(C)nnc21 (stereo not given)
measured: > 200 mg/kg

Given the entry CCOC(=O)CC1(C(=O)OCC)N=C(c2ccccc2)c2cc(Cl)ccc2-n2c(C)nnc21 (stereo not given) , report its measured ED50.
> 200 mg/kg

Measured values drawn from ChEMBL document CHEMBL1121452 for this set.
